Biological target: UniProt:P16116
Assay: In vitro inhibition of aldose reductase from the partially purified bovine lens at 10e-5 M concentration
assay.endpoint: inhibition (%)
Expressed in %, but write only the number.

Examples with their reported inhibition follow.
CSc1nc(C(C)(C)C)nc(OCC(=O)O)c1C#N | 89
CSc1nc(CC(C)(C)C)nc(OCC(=O)O)c1C#N | 95
CSc1nc(C2CCCCC2)n(CC(=O)O)c(=O)c1C#N | 98
CSc1nc(C(C)C)nc(OCC(=O)O)c1C#N | 98
CSc1nc(C(C)C)n(CC(=O)O)c(=O)c1C#N | 96

Asked: Determine from records and report inhibition for `CSc1nc(-c2ccccc2)nc(OCC(=O)O)c1C#N`
Given back: 92

Asked: Determine from records and report inhibition for `CC(C)Sc1nc(C(C)C)n(CC(=O)O)c(=O)c1C#N`
Given back: 96

Asked: Determine from records and report inhibition for `N#Cc1c(-c2ccccc2)nc(-c2cccc3c(Br)cccc23)n(CC(=O)O)c1=O`
Given back: 82

Asked: Determine from records and report inhibition for `CC(C)(C)c1nc(OCC(=O)O)c(C#N)c(SCc2ccccc2)n1`
Given back: 86

Asked: Determine from records and report inhibition for `CSc1nc(C)n(CC(=O)O)c(=O)c1C#N`
Given back: 86

Asked: Determine from records and report inhibition for `Cc1nc(N2CCN(Cc3ccccc3)CC2)c(C#N)c(=O)n1CC(=O)O`
Given back: 92

Asked: Determine from records and report inhibition for `CSc1nc(C)nc(OCC(=O)O)c1C#N`
Given back: 90

Asked: Determine from records and report inhibition for `Cc1nc(NCC2CCCCC2)c(C#N)c(=O)n1CC(=O)O`
Given back: 93

====

Biological target: Aldo-keto reductase family 1 member B1 (Bos taurus)
Assay: In vitro inhibition of aldose reductase from the partially purified bovine lens at 10e-6 M concentration
Quick rule for you: inhibition at 90% or higher means class 1, lower means class 0.

Consider the following illustrative entries.
CSc1nc(-c2ccccc2)nc(OCC(=O)O)c1C#N | class 0
COC(=O)c1c(SC)nc(C2CCCCC2)n(CC(=O)O)c1=O | class 0
CSc1nc(CC(C)(C)C)nc(OCC(=O)O)c1C#N | class 1
COC(=O)c1c(OCC(=O)O)nc(C(C)(C)C)nc1SC | class 0
CSc1nc(C(C)C)nc(OCC(=O)O)c1C#N | class 1

Asked: # check: inhibition of `N#Cc1c(-c2ccccc2)nc(-c2cccc3ccccc23)n(CC(=O)O)c1=O` is greater than or equal to 90%
Given back: class 0

Asked: # check: inhibition of `Cc1nc(NCc2cccnc2)cc(=O)n1CC(=O)O` is greater than or equal to 90%
Given back: class 0

Asked: # check: inhibition of `CC(C)c1nc(SCc2ccccc2)c(C#N)c(=O)n1CC(=O)O` is greater than or equal to 90%
Given back: class 1

Asked: # check: inhibition of `CSc1nc(C)nc(OCC(=O)O)c1C#N` is greater than or equal to 90%
Given back: class 0

Asked: # check: inhibition of `N#Cc1c(OCC(=O)O)nc(-c2cccc3ccccc23)nc1-c1ccccc1` is greater than or equal to 90%
Given back: class 0

Asked: # check: inhibition of `CSc1nc(C2CCCCC2)n(CC(=O)O)c(=O)c1S(=O)(=O)c1ccccc1` is greater than or equal to 90%
Given back: class 0
